Source listed as patent US4026888A.

Assay: Urinary recovery after IM administration to rats
Assay type: in vivo
Conditions: rat, urine, 50 mg/kg, IM 50 mg./kg., 0-24 hr, read-out: Urinary Recovery, Percentage of Administered Dose Recovered
MEASUREMENT_LABEL: dose excreted at 24 h (%)
Please give a number only; it is taken to be in %.

For orientation, consider the following solved cases.
[[record]]
compound = "O=C(O)C1=C(CSc2cnn[nH]2)CS[C@@H]2[C@H](N3C(=O)[C@@H](c4ccc(O)cc4)NC3c3ccccc3S(=O)(=O)O)C(=O)N12 (stereo partly shown) [BL-S1055]"
measurement_label = "dose excreted at 24 h"
measured_result = 39

[[record]]
compound = "O=C(O)C1=C(CSc2cnn[nH]2)CS[C@@H]2[C@H](N3C(=O)[C@@H](c4ccc(O)cc4)NC3c3ccc(S(=O)(=O)O)o3)C(=O)N12 (stereo partly shown) [BL-S1027]"
measurement_label = "dose excreted at 24 h"
measured_result = 42.2

[[record]]
compound = "N[C@@H](C(=O)N[C@@H]1C(=O)N2C(C(=O)O)=C(CSc3cnn[nH]3)CS[C@H]12)c1ccc(O)cc1 [BL-S640, reference compound]"
measurement_label = "dose excreted at 24 h"
measured_result = 47.5


Let us examine a further case.
Give recorded dose excreted at 24 h. O=C(O)COc1ccccc1C1N[C@H](c2ccc(O)cc2)C(=O)N1[C@@H]1C(=O)N2C(C(=O)O)=C(CSc3cnn[nH]3)CS[C@H]12 (stereo partly shown) [BL-S1048]
34.7
